- System: Wolbachia pipientis
- Assay info: Anti-Wolbachia Cell-Based Screen
- Assay type: functional
- Design: scale not given: in the data most compounds retested in dose-response had high values
- Assay context: 5 µM
In all, about 48,000 compounds went through this assay and about 13,000 (27%) showed an effect of 50% or more. The list shows a part of the results.
Measurement label: Percent Effect (%)

OC(COCc1ccccc1F)CN1CCc2c(ncn2C2CC2)C1 (centres undefined) : -3.372
CN1CCN(CC(=O)NCc2ccco2)Cc2ccccc21 : -30.17
N#Cc1cccnc1NCCNC(=O)N1CCCC(C(F)(F)F)C1 (centres undefined) : -23.68
Cc1cc(F)ccc1S(=O)(=O)N(C)CC(N)=O : -0.8212
O=C(CCn1c(=O)oc2ccccc21)NCC(O)c1ccc(F)c(F)c1 (centres undefined) : 132.5
COCc1ccc(CNC(=O)CN2CCc3ccccc32)cc1 : -11.7
CCOc1ccc(CN2CC[C@](C)(O)C(C)(C)C2)cn1 : -8.073
O=C(CCc1ccccn1)NCC(O)c1ccc(Cl)cc1Cl (centres undefined) : -3.695
CC(NC(=O)CCn1c(=O)oc2ccccc21)c1ccccn1 (centres undefined) : 132.8
C[C@H]1C[C@H]2CN(C(=O)C3=CCCC3)CC[C@H]2O1 : -4.42
COC(=O)N1CCc2ccccc2C1C(=O)NCc1ccco1 (centres undefined) : 14.18
CN1C[C@@H](NC(=O)c2cc(F)cc(F)c2)C[C@H]1C(=O)NCc1ncc[nH]1 : 4.795
CNC(=O)c1cccc(CCNS(C)(=O)=O)c1 : -1.562
COCC(O)CN1CCC(=O)N(Cc2ccccc2)Cc2ccccc21 (centres undefined) : 97.49
Cc1nc(CN2CCN(CC(=O)Nc3c(C)cccc3C)CC2)no1 : 0.7695
CC(NCCn1c(=O)oc2ccccc21)c1ccccn1 (centres undefined) : -1.92
O=C(CCn1c(=O)oc2ccccc21)NCC(O)c1ccccc1 (centres undefined) : 124.9
CCCC(O)CN1CCC(=O)N(Cc2ccccc2)Cc2ccccc21 (centres undefined) : 123.8
Cc1ccc(C(O)CNC(=O)CCCc2ccccn2)o1 (centres undefined) : -12.57
O=C(Cn1c(=O)oc2ccccc21)NCC(O)c1ccc2c(c1)CCO2 (centres undefined) : -5.514
O=C(Nc1ccncc1)NC1CCN(c2ccccc2OC(F)F)C1 (centres undefined) : -11.28
OC(CN1CCCCc2ccccc21)Cn1cccn1 (centres undefined) : -5.145
O=C1COc2ccc(S(=O)(=O)NCc3ccccc3)c3c2N1CCC3 : -7.83
Nc1nnc(SCC(=O)NCC(O)c2ccccc2)s1 (centres undefined) : 7.273

* * *

Overview of recorded Percent Effect for various molecules
- System: Wolbachia pipientis
- Assay info: Anti-Wolbachia Cell-Based Screen
- Assay type: functional
- Parameters: scale not given: in the data most compounds retested in dose-response had high values
- Assay context: 5 µM
Screen size: about 48,000 compounds; about 13,000 (27%) showed an effect of 50% or more. The list shows a part of the results.
Measurement label: Percent Effect (%)

CS(=O)(=O)N1CC2(CCN(c3nccs3)CC2)c2ccccc21 : 6.686
O=C(C[C@@H]1COC[C@H]2CN(CC3CC3)C[C@@H]12)N1CCCCO1.O=C(O)C(F)(F)F : -10.75
CC[C@H]1CN(S(C)(=O)=O)CC[C@H]1CC(=O)NCCOC : 0.9239
COc1cc(N2CC3(CCN(S(C)(=O)=O)C3)C2)ncn1.O=C(O)C(F)(F)F : -16.93
COCCNC(=O)C[C@@H]1COC[C@H]2CN(C(=O)c3cnccn3)C[C@@H]12 : -3.747
COCCNC(=O)C[C@@H]1COC[C@H]2CN(C(=O)COC)C[C@@H]12 : 99.69
COc1cc(N2CCC3(CC2)CN(S(C)(=O)=O)c2ccccc23)ncn1 : 110.7
COCCNC(=O)C[C@@H]1COC[C@H]2CN(CC3CCOCC3)C[C@@H]12.O=C(O)C(F)(F)F : 95.67
COc1cc(N2CC3(CCN(c4ncccn4)C3)C2)ncn1 : -18.99

* * *

- Tested on: Wolbachia pipientis
- Assay info: Anti-Wolbachia Cell-Based Screen
- Assay type: functional
- Set-up: scale not given: in the data most compounds retested in dose-response had high values
- Assay context: 5 µM
Hit rate of the full screen: of about 48,000 compounds, about 13,000 (27%) showed an effect of 50% or more. The list shows a part of the results.
Measurement label: Percent Effect (%)

COCC(=O)NCC1Cn2nnc(-c3ccncc3)c2CO1.O=C(O)C(F)(F)F (centres undefined) : -3.08
CN(C)C(CNC(=O)NCc1cc[nH]n1)c1ccco1 (centres undefined) : -4.793
COc1ccc(OC)c(CCC(=O)Nc2cc(C)n[nH]2)c1 : -33.89
Cc1nc2c(c(N(C)Cc3ccccc3-n3cccn3)n1)CCNCC2 : 14.94
COc1ccc(NC(=O)CNc2cccc3c2CCCC3)c(OC)c1 : -2.331
CN(C)Cc1nnc(C2CCCN(c3nc(C(N)=O)cs3)C2)n1C (centres undefined) : 10.64
COc1ccc(OC)c(NC(=O)CSc2ccc3nncn3n2)c1 : 92.9
Cc1oc(-c2ccsc2)nc1CC(=O)NCCS(C)(=O)=O : -2.536
COCc1noc(-c2ccc(N3CCCC3c3nccs3)nc2)n1 (centres undefined) : 1.711
CCN(CC)S(=O)(=O)c1ccc(OC)c(NC(=O)CSC)c1 : -7.74
COCC(=O)NC[C@@]1(COc2cccnc2)C[C@@H](O)[C@@H](O)C1.Cl : -0.8237
CC(C)c1nccn1CCCNC(=O)c1ccc(N(C)C)nc1 : -4.813
O=C(c1cccnc1)C1CCCN(c2nnc(C3CC3)o2)C1 (centres undefined) : -9.968
CCC[C@@H]1CN(Cc2cc3c(cc2OC)OCO3)C[C@H]1C(=O)O : 5.15
COc1cc(N2CCn3cc(CNc4ccccn4)nc3C2)ncn1 : 0.6158
c1cncc(-c2nnc([C@H]3CCN(CC4CCCCC4)C3)o2)c1 : 11.75
CCOc1ccc(C(=O)NCc2ccnc(N3CCN(C)CC3)c2)cn1 : 4.898
COc1ccc(NC(=O)CCSc2ccc3nncn3n2)c(OC)c1 : 100.6
NC(=O)c1csc(N2C[C@@H](CN3CCC(O)CC3)[C@@H](CO)C2)n1 : 99.75
COc1ccc(OC)c(-n2cnnc2CN)c1 : -14.69
COc1ccc(NC(=O)CCC2CCCN(S(=O)(=O)C3CC3)C2)c(C)c1 (centres undefined) : -10.5
COc1cc(Cl)c(C)cc1NC(=O)CNc1ccn(CC(N)=O)n1 : -71.24
NC(=O)c1csc(N2C[C@@H](CN3CCCCC3)[C@@H](CO)C2)n1 : 104.1
OC(CNc1cncc(OCc2ccccc2)n1)c1ccco1 (centres undefined) : 3.469

* * *

Overview of recorded Percent Effect for various molecules
- Tested on: Wolbachia pipientis
- Assay info: Anti-Wolbachia Cell-Based Screen
- Type: functional
- Design: scale not given: in the data most compounds retested in dose-response had high values
- Assay context: 5 µM
About 13,000 (27%) of roughly 48,000 compounds showed an effect of 50% or more. This is one part of the list.
Measurement label: Percent Effect (%)

CC(C)COC(C)C(=O)NCCNC(=O)C(C)C (stereo unspecified) : 90.67
CC(C)COC(C)C(=O)NCCNS(C)(=O)=O (stereo unspecified) : 116.1
CCN(CC)CCNC(=O)C(C)OCC(F)(F)F (stereo unspecified) : -16.45
CC(C)C(=O)NCCNC(=O)C(C)OCC(F)(F)F (stereo unspecified) : 2.033
CS(=O)(=O)CCC(=O)N1C[C@@H]2CC[C@H](C1)N(Cc1ccccn1)C2=O : 13.71
Cc1cc(N(C)C)nc(NC2CCc3nc(C)nn3C2)n1 (stereo unspecified) : 0.6524

* * *

- System: Wolbachia pipientis
- Assay info: Anti-Wolbachia Cell-Based Screen
- Assay type: functional
- Parameters: scale not given: in the data most compounds retested in dose-response had high values
- Assay context: 5 µM
Hit rate of the full screen: of about 48,000 compounds, about 13,000 (27%) showed an effect of 50% or more. Some of the results follow.
Overview of recorded Percent Effect for various compounds
Measurement label: Percent Effect (%)

O=C(O)C(F)(F)F.O=C1N(CC2CCCC2)CCC12CCN(c1ncc(F)cn1)CC2 : 111.9
CC1Cc2ccccc2N1C(=O)Cn1nc(-c2cccs2)cc(N)c1=O (stereo unspecified) : 146.8
COc1ccnc(N2CCC3(CCCN(CC4CC4)C3=O)C2)n1 (stereo unspecified) : -5.296
O=C1CCC2(CCCN(C(=O)c3ncc[nH]3)C2)CN1CCc1c[nH]cn1 (stereo unspecified) : 2.094
COc1ccc(-c2noc([C@@H]3C[C@@H](O)CN3C3CCOCC3)n2)cc1 : 13.77
CC1Cc2ccccc2N1C(=O)Cn1nc(-c2cccs2)ccc1=O (stereo unspecified) : 148.6
Cc1cnc(N2CCC3(CCC(C(=O)NC(C)C)C3)CC2)nc1.O=C(O)C(F)(F)F (stereo unspecified) : -24.15
Cc1ccc(-c2cc(N)c(=O)n(CC(=O)NCC3CC3)n2)s1 : -0.7868
CN(C)CC1CN(CC(=O)N2CCc3ccccc32)CCO1 (stereo unspecified) : -2.513
O=c1ccc(-c2cccs2)nn1CN1CCCCCC1 : 6.119
O=C1OCCN1CCCN1CCCC1c1ccc(O)cc1 (stereo unspecified) : -23.79

Data origin: ChEMBL document CHEMBL3988442
